Source of measurements: patent US10583141B2

Experiment: Stability (half-life of donor decomposition) via 1H NMR protocol
Format: physicochemical
Conditions: 5 mM donor in 10% DMSO-d6, 10% D2O, 80% H2O, phosphate buffer (0.25M) with DTPA (0.2 mM), pH 7.4, 37° C., under argon
readout.type: half-life at 5 mM (h)
Give bare numbers, in h.

Solved entries (count: 4):
CO/N=C(\C)C1(N(O)C(=O)N(C)C)C(=O)N(C)N=C1C (centres unmarked) [Compound 6] : 0.767
CO/N=C(\C)C1(N(O)C(=O)OC)C(=O)N(C)N=C1C (centres unmarked) [Compound 4] : 96
CO/N=C(\C)C1(N(O)C(=O)N(C)C)C(=O)N(c2ccccc2)N=C1C (centres unmarked) [Compound 5] : 0.417
CO/N=C(\C)C1(N(O)C(C)=O)C(=O)N(c2ccccc2)N=C1C (centres unmarked) [Compound 1] : 120

Query :: What value of half-life at 5 mM has been reported for the following molecule? CO/N=C(\C)C1(N(O)C(=O)OC)C(=O)N(c2ccccc2)N=C1C (centres unmarked) [Compound 3]
Result :: 48
